Biological target: Adenosine receptor A3 (Homo sapiens)
Sequence (P0DMS8 whole entry): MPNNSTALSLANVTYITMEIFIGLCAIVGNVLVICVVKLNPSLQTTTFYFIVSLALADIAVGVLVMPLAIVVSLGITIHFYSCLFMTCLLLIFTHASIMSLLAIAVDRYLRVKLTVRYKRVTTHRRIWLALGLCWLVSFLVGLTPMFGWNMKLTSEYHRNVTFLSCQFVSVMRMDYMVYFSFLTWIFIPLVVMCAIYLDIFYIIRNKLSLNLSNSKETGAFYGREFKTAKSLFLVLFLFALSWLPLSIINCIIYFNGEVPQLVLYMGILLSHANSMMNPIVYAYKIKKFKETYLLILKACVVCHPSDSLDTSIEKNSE
pKi values for the molecules below.
pKi here is simply -log10 of the concentration when that concentration is written in mol/L.

I have this molecule here, "Nc1nc(C(=O)NCc2cccc(F)c2)cc(-c2ccco2)n1" , and I need its recorded pKi. 5.97

Please look up its pKi: "COc1ccccc1CNC(=O)c1cc(-c2ccco2)nc(N)n1" 6.40

Data request, read-out pKi, for "Cc1cccc(CNC(=O)c2cc(-c3ccco3)nc(N)n2)c1" 5.82

Look up pKi for this molecule: "Cc1ccccc1CNC(=O)c1cc(-c2ccco2)nc(N)n1" 6.23

Consider the molecule "COCc1cccc(CNC(=O)c2cc(-c3ccco3)nc(N)n2)n1" and give its measured pKi. 5.76

# pKi lookup, item "Nc1nc(C(=O)NCc2cccnc2)cc(-c2ccco2)n1" 5.19

New cases:
Quick check: pKi of "Nc1nc(C(=O)NCc2ccccc2Cl)cc(-c2ccco2)n1" ? 6.38

Value source: ChEMBL document CHEMBL1151872
